Please respond with reported viability, T/C for every item in the list.
Test system: 947758-054-R-J2-PDC spheroid growth, percent test/control
protocol_text: Anticancer human tumor 947758-054-R-J2-PDC patient-derived colon adenocarcinoma cell line growth inhibition [CLK]
condition_info: second compound 0.0316 µM; first compound 0.316 µM; hits give low values; spheroids with HUVEC and MSC
One number for each entry, in %.

// below: answered compounds
| compound | viability, T/C / % |
| --- | --- |
| CCN1CCN(Cc2ccc(Nc3ncc(F)c(-c4cc(F)c5nc(C)n(C(C)C)c5c4)n3)nc2)CC1 + CN1CCN(c2cc(C(=O)Nc3cc4cc(-c5cnn(C)c5)ccc4cn3)ccn2)CC1 | 98.2 |
| CC(CO)NC(=O)c1cc(-c2ccc(Cl)cc2)nn(-c2cnn(C)c2)c1=O (stereo not given) + CNC(=O)c1ccc(Nc2nc(OC3CCCC3)c3c(-c4ccc5nc(C)oc5c4)c[nH]c3n2)c(OC)c1 | 72.1 |
| COc1ccc([C@@H](O)c2cc(-c3ncnc4cc(N5CCOCC5)ccc34)c(F)cc2Cl)nn1 + CNC(=O)c1ccc(Nc2nc(OC3CCCC3)c3c(-c4ccc5nc(C)oc5c4)c[nH]c3n2)c(OC)c1 | 74.7 |
| CC(Nc1ccc2c(c1)OCCn1cc(N3C(=O)OCC3C(F)F)nc1-2)C(N)=O (stereo not given) + CN1CCN(c2cc(C(=O)Nc3cc4cc(-c5cnn(C)c5)ccc4cn3)ccn2)CC1 | 137 |

Continue with the compound presented below.
## Task Please look at this compound and report its viability, T/C: C=CC(=O)N1CCN(c2nc(=O)n(-c3c(C)ccnc3C(C)C)c3nc(-c4c(O)cccc4F)c(F)cc23)C(C)C1 (stereo not given) + CN1CCN(c2cc(C(=O)Nc3cc4cc(-c5cnn(C)c5)ccc4cn3)ccn2)CC1
## Result 122

====

For each of the molecules below, state its viability, T/C.
Tested on: 947758-054-R-J2-PDC spheroid growth, percent test/control
protocol_text: Anticancer human tumor 947758-054-R-J2-PDC cell line growth inhibition [CLK]
condition_info: second compound 3.16 µM; first compound 1 µM; hits give low values; spheroids with HUVEC and MSC
Numbers only, in %.

Worked examples follow.
| molecule | viability, T/C, % |
| --- | --- |
| O=C(c1cc(Cc2n[nH]c(=O)c3ccccc23)ccc1F)N1CCN(C(=O)C2CC2)CC1 + CNC(=O)c1ccc(Nc2nc(OC3CCCC3)c3c(-c4ccc5nc(C)oc5c4)c[nH]c3n2)c(OC)c1 | 52.7 |
| C=CC(=O)N1CCN(c2nc(=O)n(-c3c(C)ccnc3C(C)C)c3nc(-c4c(O)cccc4F)c(F)cc23)C(C)C1 (centres undefined) + CNC(=O)c1ccc(Nc2nc(OC3CCCC3)c3c(-c4ccc5nc(C)oc5c4)c[nH]c3n2)c(OC)c1 | 40.9 |
| CC1COCCN1c1cc(C2(S(C)(=N)=O)CC2)nc(-c2ccnc3[nH]ccc23)n1 (centres undefined) + CNC(=O)c1ccc(Nc2nc(OC3CCCC3)c3c(-c4ccc5nc(C)oc5c4)c[nH]c3n2)c(OC)c1 | 45.7 |

From here, focus on the item given below.
## Task # return recorded viability, T/C for entry CC(=O)O[C@H]1C(=O)[C@@]2(C)[C@H]([C@H](OC(=O)c3ccccc3)[C@]3(O)C[C@H](OC(=O)[C@H](O)[C@@H](NC(=O)c4ccccc4)c4ccccc4)C(C)=C1C3(C)C)[C@]1(OC(C)=O)CO[C@@H]1C[C@@H]2O + CNC(=O)c1ccc(Nc2nc(OC3CCCC3)c3c(-c4ccc5nc(C)oc5c4)c[nH]c3n2)c(OC)c1
## Result 70.8

====

Tested on: 947758-054-R-J2-PDC spheroid growth, percent test/control
protocol_text: Anticancer human tumor 947758-054-R-J2-PDC cell line growth inhibition [CLK];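 also: spheroids exposed to compounds for one week before readout; 100% = DMSO vehicle control wells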
condition_info: second compound 1 µM; first compound 0.000949 µM; hits give low values; spheroids with HUVEC and MSC
quantity_measured: viability, T/C (%)
Answers are plain numbers, in %.

| compound | test_value |
| --- | --- |
| CC(C)CC(NC(=O)C(Cc1ccccc1)NC(=O)c1cnccn1)B(O)O (centres undefined) + CN1CCN(c2cc(C(=O)Nc3cc4cc(-c5cnn(C)c5)ccc4cn3)ccn2)CC1 | 0.14 |
| CC(C)CC(NC(=O)C(Cc1ccccc1)NC(=O)c1cnccn1)B(O)O (centres undefined) + CNC(=O)c1ccc(Nc2nc(OC3CCCC3)c3c(-c4ccc5nc(C)oc5c4)c[nH]c3n2)c(OC)c1 | 75.7 |
| C=CC(=O)Nc1cc(Nc2nccc(-c3cn(C)c4ccccc34)n2)c(OC)cc1N(C)CCN(C)C + CNC(=O)c1ccc(Nc2nc(OC3CCCC3)c3c(-c4ccc5nc(C)oc5c4)c[nH]c3n2)c(OC)c1 | 70.2 |

# context switch: different compound, same viability, T/C
## Task Note viability, T/C for the compound shown: C=CC(=O)Nc1cc(Nc2nccc(-c3cn(C)c4ccccc34)n2)c(OC)cc1N(C)CCN(C)C + CN1CCN(c2cc(C(=O)Nc3cc4cc(-c5cnn(C)c5)ccc4cn3)ccn2)CC1
## Result 0.14

====

System: 947758-054-R-J2-PDC spheroid growth, percent test/control
protocol_text: Anticancer human tumor 947758-054-R-J2-PDC cell line growth inhibition [CLK];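 also: spheroids exposed to compounds for one week before readout; 100% = DMSO vehicle control wells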
condition_info: second compound 10 µM; first compound 1 µM; hits give low values; spheroids with HUVEC and MSC
Lab note: compare viability, T/C with 1%, writing 1 (yes) if less and 0 (no) if equal or more.

These recorded examples may help you get a feel for the data.
| molecule | group |
| --- | --- |
| COC1C=CCC(C)C(C)S(=O)(=O)NC(=O)c2ccc3c(c2)N(CC2CCC21)CC1(CCCc2cc(Cl)ccc21)CO3 (stereo not given) + CNC(=O)c1ccc(Nc2nc(OC3CCCC3)c3c(-c4ccc5nc(C)oc5c4)c[nH]c3n2)c(OC)c1 | 0 (no) |
| CCc1c2c(nc3ccc(O)cc13)-c1cc3c(c(=O)n1C2)COC(=O)[C@]3(O)CC + CN1CCN(c2cc(C(=O)Nc3cc4cc(-c5cnn(C)c5)ccc4cn3)ccn2)CC1 | 0 (no) |
| COc1c(OCCCN2CCOCC2)ccc2c3n(c(=NC(=O)c4cnc(N)nc4)nc12)CCN3 + CN1CCN(c2cc(C(=O)Nc3cc4cc(-c5cnn(C)c5)ccc4cn3)ccn2)CC1 | 0 (no) |

## Task Take the molecule CCCS(=O)(=O)Nc1ccc(F)c(C(=O)c2c[nH]c3ncc(-c4ccc(Cl)cc4)cc23)c1F + CN1CCN(c2cc(C(=O)Nc3cc4cc(-c5cnn(C)c5)ccc4cn3)ccn2)CC1 and say whether its viability, T/C is less than 1%.
## Result 1 (yes)

## Task For C#Cc1c(F)ccc2cc(O)cc(-c3ncc4c(N5CC6CCC(C5)N6)nc(OCC56CCCN5CC(F)C6)nc4c3F)c12 (stereo not given) + CN1CCN(c2cc(C(=O)Nc3cc4cc(-c5cnn(C)c5)ccc4cn3)ccn2)CC1 , is the recorded viability, T/C below the cut-off of 1%?
## Result 1 (yes)

====

Test system: 947758-054-R-J2-PDC spheroid growth, percent test/control
protocol_text: Anticancer human tumor 947758-054-R-J2-PDC cell line growth inhibition [CLK];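 also: spheroids exposed to compounds for one week before readout; 100% = DMSO vehicle control wells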
condition_info: second compound 10 µM; first compound 3.16 µM; hits give low values; spheroids with HUVEC and MSC
Field: viability, T/C. Provide a value for each of the compounds that follow.
Give bare numbers, in %.

See these solved cases before continuing.
| compound | viability, T/C [%] |
| --- | --- |
| COc1ccc([C@@H](O)c2cc(-c3ncnc4cc(N5CCOCC5)ccc34)c(F)cc2Cl)nn1 + CN1CCN(c2cc(C(=O)Nc3cc4cc(-c5cnn(C)c5)ccc4cn3)ccn2)CC1 | 0.3 |
| CC1(C)CCC(CN2CCN(c3ccc(C(=O)NS(=O)(=O)c4ccc(NCC5CCOCC5)c([N+](=O)[O-])c4)c(Oc4cnc5[nH]ccc5c4)c3)CC2)=C(c2ccc(Cl)cc2)C1 + CN1CCN(c2cc(C(=O)Nc3cc4cc(-c5cnn(C)c5)ccc4cn3)ccn2)CC1 | 0.52 |

Let's switch to this compound now.
## Task // fetch viability, T/C given entry Nc1ccn(C2OC(CO)C(O)C2(F)F)c(=O)n1 (stereo not drawn) + CN1CCN(c2cc(C(=O)Nc3cc4cc(-c5cnn(C)c5)ccc4cn3)ccn2)CC1
## Result 1.07

====

What viability, T/C was measured for each of the following?
Test system: 947758-054-R-J2-PDC spheroid growth, percent test/control
protocol_text: Anticancer human tumor 947758-054-R-J2-PDC cell line growth inhibition [CLK];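 also: spheroids exposed to compounds for one week before readout; 100% = DMSO vehicle control wells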
condition_info: second compound 3.16 µM; first compound 0.01 µM; hits give low values; spheroids with HUVEC and MSC
Give bare numbers, in %.

| compound | test_value |
| --- | --- |
| CCN1CCN(Cc2ccc(Nc3ncc(F)c(-c4cc(F)c5nc(C)n(C(C)C)c5c4)n3)nc2)CC1 + CN1CCN(c2cc(C(=O)Nc3cc4cc(-c5cnn(C)c5)ccc4cn3)ccn2)CC1 | 0.69 |
| COc1c(OCCCN2CCOCC2)ccc2c3n(c(=NC(=O)c4cnc(N)nc4)nc12)CCN3 + CN1CCN(c2cc(C(=O)Nc3cc4cc(-c5cnn(C)c5)ccc4cn3)ccn2)CC1 | 0.95 |

Kindly review the next compound as well.
## Task Look up viability, T/C of CCN1CCN(Cc2ccc(Nc3ncc(F)c(-c4cc(F)c5nc(C)n(C(C)C)c5c4)n3)nc2)CC1 + CNC(=O)c1ccc(Nc2nc(OC3CCCC3)c3c(-c4ccc5nc(C)oc5c4)c[nH]c3n2)c(OC)c1 and report it.
## Result 32.5
